test: Elimination half life in Sprague-Dawley rat at 3 mg/kg, iv or 10 mg/kg, po administered as single dose via gavage by LC-MS/MS analysis; type: ADME, organism-based; conditions: in vivo, read-out: beta t1/2 (converted)
METRIC_NAME: half-life (h)
Form entry: value (h) — number only.

Take a look at these entries with their results.
>  <COMPOUND>
Nc1ncc(C(=O)N[C@H]2CC/C(=C\c3cccc(Oc4ccc(C(F)(F)F)cn4)c3)CC2)cn1 (centres undefined)

>  <READOUT_UNITS>
h

>  <OBSERVED_RESULT>
17.2

$$$$
>  <COMPOUND>
O=C(N[C@H]1CC/C(=C\c2cccc(Oc3ccc(C(F)(F)F)cn3)c2)CC1)c1cccnc1 (centres undefined)

>  <READOUT_UNITS>
h

>  <OBSERVED_RESULT>
5.1

$$$$
>  <COMPOUND>
Cc1cc(C(=O)N[C@H]2CC/C(=C\c3cccc(Oc4ccc(C(F)(F)F)cn4)c3)CC2)cnc1N (centres undefined)

>  <READOUT_UNITS>
h

>  <OBSERVED_RESULT>
17

$$$$

Recorded result, Nc1ccc(C(=O)N[C@H]2CC/C(=C\c3cccc(Oc4ccc(C(F)(F)F)cn4)c3)CC2)cn1 (centres undefined) , half-life: 9.2
